Test system: Abutilon theophrasti
assay.protocol: Herbicidal post-emergence action (Experimental Part 2, C)
Type: in vivo
measurement.context: post-emergence (Part 2), application rate 1280 g/ha, rated visually after about 3 weeks
measured.endpoint: Abutilon theophrasti, herbicidal activity (%)
Numbers only, in %.

Known Abutilon theophrasti, herbicidal activity results, listed for orientation:
> print(dat)
                                   molecule  value.measured
1  CC(=O)OC1C(C)=CC(=O)N1c1cc(C(C)(C)C)no1 (stereo not drawn)             100
2  CC1=CC(=O)N(c2cscn2)C1O (stereo not drawn)             100
3  CCC(=O)OC1C(C)=CC(=O)N1c1cc(C(C)(C)C)no1 (stereo not drawn)             100

// each molecule listed below needs its Abutilon theophrasti, herbicidal activity
1. CC1=CC(=O)N(c2noc(C(C)(C)C)c2C)C1O (stereo not drawn)
2. CC1=CC(O)N(c2onc(C(C)(C)C)c2C)C1=O (stereo not drawn)
3. CC1=CC(=O)N(c2cc(C(C)C)no2)C1O (stereo not drawn)

Reply |
100
100
100

* * *

System: Echinochloa crus-galli
assay.protocol: Herbicidal pre-emergence action (Experimental Part 2, D)
Format: in vivo
measurement.context: pre-emergence (Part 2), application rate 320 g/ha, scored visually after about 3 weeks
Assignment: determine reported Echinochloa crus-galli, herbicidal activity for the given molecules.
Answers are plain numbers, in %.

> print(dat)
                                   molecule  value.measured
1  CCC(=O)OC1C=C(C)C(=O)N1c1cc(C(C)(C)C)no1 (centres unmarked)              90
2  CC1=CC(O)N(c2cc(C(C)(C)C)no2)C1=O (centres unmarked)             100
3  CC1=CC(O)N(c2cc(C(C)(C)C)on2)C1=O (centres unmarked)             100
4  CC1=CC(O)N(c2noc(C(C)(C)C)c2C)C1=O (centres unmarked)             100

Below: the item to evaluate.
Query CC1=CC(=O)N(c2onc(C(C)(C)C)c2C)C1O (centres unmarked) yields Echinochloa crus-galli, herbicidal activity of 100

* * *

For each record, write down the corresponding Setaria viridis, herbicidal activity.
Tested on: Setaria viridis
assay.protocol: Herbicidal pre-emergence action (Experimental Part 2, D)
Format: in vivo
measurement.context: pre-emergence (Part 2), application rate 320 g/ha, scored visually after about 3 weeks
Give bare numbers, in %.

Hey, quick one: what's Setaria viridis, herbicidal activity for each of these?
1. CCC(=O)OC1C=C(C)C(=O)N1c1cc(C(C)(C)C)no1 (stereo not drawn)
2. CCC(=O)OC1C(C)=CC(=O)N1c1cc(C(F)(F)F)c(Cl)cn1 (stereo not drawn)
3. CC1=CC(O)N(c2cc(C(C)(C)C)on2)C1=O (stereo not drawn)
4. CC1=CC(=O)N(c2noc(C(C)(C)C)c2C)C1O (stereo not drawn)
5. CC1=CC(O)N(c2noc(C(C)(C)C)c2C)C1=O (stereo not drawn)
6. CC1=CC(O)N(c2onc(C(C)(C)C)c2C)C1=O (stereo not drawn)

Reply |
1: 90; 2: 100; 3: 100; 4: 100; 5: 100; 6: 90

* * *

Test system: Abutilon theophrasti
assay.protocol: Herbicidal pre-emergence action (Experimental Part 2, D)
Format: in vivo
measurement.context: pre-emergence (Part 2), application rate 1280 g/ha, scored visually after about 3 weeks
measured.endpoint: Abutilon theophrasti, herbicidal activity (%)
Numbers only, in %.

Please review the entries below; each comes with its answer.
> print(dat)
                                   compound          study.target  endpoint.unit  value.measured
1  CC1=CC(=O)N(c2cscn2)C1O (centres unmarked) [I.1-91]  Abutilon theophrasti              %             100
2  CC1=CC(=O)N(c2cc(C(C)(C)C)no2)C1O (centres unmarked) [I.1-290]  Abutilon theophrasti              %              90
3  CC1=CC(=O)N(c2cc(C(C)C)no2)C1O (centres unmarked) [I.1-289]  Abutilon theophrasti              %             100
4  CCC(=O)OC1C(C)=CC(=O)N1c1cc(C(C)(C)C)no1 (centres unmarked) [I.5-290]  Abutilon theophrasti              %             100

Now for a further compound.
# Abutilon theophrasti, herbicidal activity of CC(=O)OC1C(C)=CC(=O)N1c1cc(C(C)(C)C)no1 (centres unmarked) [I.3-290] = 100

* * *

Test system: Amaranthus retroflexus
assay.protocol: Pre-emergence herbicidal action (Experimental Part 1, B)
Format: in vivo
measurement.context: application rate 1280 g/ha, scored visually after about 3 weeks
measured.endpoint: Amaranthus retroflexus, herbicidal activity

> print(dat)
                                   molecule  value.measured
1  CC(=O)OC1C(C)=CC(=O)N1c1cc(C(C)(C)C)on1 (centres unmarked)            100%

I need Amaranthus retroflexus, herbicidal activity for every entry listed below, if you could help.
1. CCC(=O)OC1C(C)=CC(=O)N1c1cc(C(C)(C)C)on1 (centres unmarked)
2. CC(=O)OC1C(C)=CC(=O)N1c1cc(C(C)(C)C)no1 (centres unmarked)
3. CCOC(=O)OC1C=C(C)C(=O)N1c1cc(C(F)(F)F)c(Cl)cn1 (centres unmarked)
4. CC1=CC(=O)N(c2cc(C(C)(C)C)on2)C1O (centres unmarked)

Reply |
100%
90%
100%
100%

* * *

Assign Stellaria media, herbicidal activity to each entry below.
Tested on: Stellaria media
assay.protocol: Herbicidal pre-emergence action (Experimental Part 2, D)
Assay type: in vivo
measurement.context: pre-emergence (Part 2), application rate 1280 g/ha, scored visually after about 3 weeks
Excerpt: Seeds of mono- and dicotyledonous weed plants were placed in plastic pots in sandy loam soil (doubly sown with in each case one species of mono- or dicotyledonous weed plants per pot) and covered with soil. […] After about 3 weeks, the effect of the preparations was scored visually in comparison with untreated controls as percentages. […]
Give bare numbers, in %.

Take each entry in turn and give its Stellaria media, herbicidal activity.
1. CC1=CC(=O)N(c2cc(C)ns2)C1O (centres unmarked)
2. CC1=CC(=O)N(c2cc(C(C)C)no2)C1O (centres unmarked)
3. CCC(=O)OC1C(C)=CC(=O)N1c1cc(C(F)(F)F)c(Cl)cn1 (centres unmarked)
4. CC1=CC(=O)N(c2noc(C(C)(C)C)c2C)C1O (centres unmarked)

Reply |
1: 90; 2: 100; 3: 100; 4: 100

Sample CC(=O)OC1C(C)=CC(=O)N1c1cc(C(C)(C)C)no1 (centres unmarked) ; Stellaria media, herbicidal activity observed: 100

* * *

Test system: Poa annua
assay.protocol: Herbicidal pre-emergence action (Experimental Part 2, D)
Format: in vivo
measurement.context: pre-emergence (Part 2), application rate 1280 g/ha, scored visually after about 3 weeks
measured.endpoint: Poa Annua, herbicidal activity (%)
Numbers only, in %.

Study these solved cases before continuing.
> print(dat)
                                   molecule               measured.endpoint  value.measured
1  CC1=CC(=O)N(c2cc(C(C)C)no2)C1O (centres unmarked) [I.1-289]  Poa Annua, herbicidal activity             100
2  CC1=CC(=O)N(c2cc(C(F)(F)F)c(Cl)cn2)C1O (centres unmarked) [I.1-451]  Poa Annua, herbicidal activity              90
3  CC(=O)OC1C(C)=CC(=O)N1c1cc(C(C)(C)C)no1 (centres unmarked) [I.3-290]  Poa Annua, herbicidal activity              90

Batch request: Poa Annua, herbicidal activity for each of the following molecules.
1. CC1=CC(O)N(c2onc(C(C)(C)C)c2C)C1=O (centres unmarked) [I.2-300]
2. CC1=CC(=O)N(c2noc(C(C)(C)C)c2C)C1O (centres unmarked) [I.1-177]

Reply |
1. 90
2. 100

* * *

study.target: photosystem II (PS II) (Spinacia oleracea)
Construct: the chloroplasts were osmotically ruptured and the thylakoid membranes were then obtained by centrifugation; from tissue; host or cells: thylakoid membranes from fresh spinach leaves
assay.protocol: Measurement of the PS II activity in thylakoid membranes (DCPIP reduction, Experimental Part 3, Table E1)
Type: biochemical
measurement.context: spinach thylakoid membranes
measured.endpoint: Effect (inhibition of PS II activity)

Examples with answers:
> print(dat)
                                   molecule                              study.target            value.measured
1  CC1=CC(O)N(c2cc(C(C)(C)C)on2)C1=O (stereo not shown) [I.2-162]  photosystem II (PS II) (Spinacia oleracea)     ++++ (inhibition≥90%)
2  CC1=CC(=O)N(c2cc(C(C)(C)C)on2)C1O (stereo not shown) [I.1-162]  photosystem II (PS II) (Spinacia oleracea)     ++++ (inhibition≥90%)
3  CSc1nnc(C(C)(C)C)c(=O)n1N [metribuzin, reference compound]  photosystem II (PS II) (Spinacia oleracea)     ++++ (inhibition≥90%)
4  CC1=CC(=O)N(c2cc(C(C)(C)C)n(C)n2)C1O (stereo not shown) [I.1-315]  photosystem II (PS II) (Spinacia oleracea)     ++++ (inhibition≥90%)
5  CC1=CC(=O)N(c2cc(C)ns2)C1O (stereo not shown) [I.1-72]  photosystem II (PS II) (Spinacia oleracea)     ++++ (inhibition≥90%)
6  CC1=CC(O)N(c2cc(-c3ccccc3)ns2)C1=O (stereo not shown) [I.2-86]  photosystem II (PS II) (Spinacia oleracea)     ++++ (inhibition≥90%)
7  CC1=CC(=O)N(c2cc(C(F)(F)F)ccn2)C1O (stereo not shown) [I.1-449]  photosystem II (PS II) (Spinacia oleracea)     ++++ (inhibition≥90%)
8  CC1=CC(=O)N(c2onc(C(C)(C)C)c2C)C1O (stereo not shown) [I.1-300]  photosystem II (PS II) (Spinacia oleracea)  +++ (90%>inhibition≥70%)

Hey, can you go through the list below and give me Effect (inhibition of PS II activity) for every item?
1. CC1=CC(O)N(c2cc(C(C)(C)C)no2)C1=O (stereo not shown) [I.2-290]
2. CC1=CC(=O)N(c2cc(-c3ccccc3)ns2)C1O (stereo not shown) [I.1-86]
3. CC1=CC(=O)N(c2cc(CC(C)C)no2)C1O (stereo not shown) [I.1-697]
4. CC1=CC(O)N(c2onc(C(C)(C)C)c2C)C1=O (stereo not shown) [I.2-300]
5. CC1=CC(O)N(c2noc(C(C)(C)C)c2C)C1=O (stereo not shown) [I.2-177]
6. CC(=O)OC1C(C)=CC(=O)N1c1cc(C(F)(F)F)c(Cl)cn1 (stereo not shown) [I.3-451]

Reply |
["++++ (inhibition≥90%)", "++++ (inhibition≥90%)", "++++ (inhibition≥90%)", "++++ (inhibition≥90%)", "++++ (inhibition≥90%)", "+++ (90%>inhibition≥70%)"]
